target: EGFR (EGFR type 1 kinase) (Homo sapiens, UniProt P00533)
Sequence (P00533 25-1210, species assumed): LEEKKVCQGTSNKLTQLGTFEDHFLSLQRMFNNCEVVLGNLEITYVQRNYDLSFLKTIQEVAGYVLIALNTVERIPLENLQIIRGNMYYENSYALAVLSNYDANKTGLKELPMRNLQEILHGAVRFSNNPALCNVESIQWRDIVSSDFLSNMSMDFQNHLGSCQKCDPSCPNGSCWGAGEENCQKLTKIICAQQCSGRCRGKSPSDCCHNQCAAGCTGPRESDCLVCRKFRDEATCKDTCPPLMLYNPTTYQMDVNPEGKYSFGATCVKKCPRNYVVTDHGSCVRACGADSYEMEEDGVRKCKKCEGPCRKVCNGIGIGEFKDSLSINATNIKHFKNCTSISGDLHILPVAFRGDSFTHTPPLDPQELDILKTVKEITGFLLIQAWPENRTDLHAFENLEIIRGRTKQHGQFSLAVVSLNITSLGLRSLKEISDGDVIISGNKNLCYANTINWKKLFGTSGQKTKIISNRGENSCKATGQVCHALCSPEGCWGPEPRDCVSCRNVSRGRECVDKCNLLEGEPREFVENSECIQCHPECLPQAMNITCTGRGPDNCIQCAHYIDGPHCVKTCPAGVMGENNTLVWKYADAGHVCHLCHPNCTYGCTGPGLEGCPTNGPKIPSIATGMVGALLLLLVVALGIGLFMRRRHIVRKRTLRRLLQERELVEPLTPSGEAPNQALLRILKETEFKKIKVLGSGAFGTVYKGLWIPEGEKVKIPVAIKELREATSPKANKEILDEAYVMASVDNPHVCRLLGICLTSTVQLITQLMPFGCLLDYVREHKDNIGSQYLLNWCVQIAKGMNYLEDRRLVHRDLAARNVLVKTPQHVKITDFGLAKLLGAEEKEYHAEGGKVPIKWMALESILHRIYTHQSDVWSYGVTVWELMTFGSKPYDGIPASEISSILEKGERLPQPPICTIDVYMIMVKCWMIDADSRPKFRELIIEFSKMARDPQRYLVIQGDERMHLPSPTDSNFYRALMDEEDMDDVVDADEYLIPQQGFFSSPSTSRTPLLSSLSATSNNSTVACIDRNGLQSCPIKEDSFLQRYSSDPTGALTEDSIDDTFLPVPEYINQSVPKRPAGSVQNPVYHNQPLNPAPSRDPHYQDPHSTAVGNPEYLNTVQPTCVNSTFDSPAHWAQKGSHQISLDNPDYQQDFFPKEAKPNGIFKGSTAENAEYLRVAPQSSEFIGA
procedure_text: Inhibition of EGFR enzyme (fluorescence polarization kinase assay)
measured_endpoint: IC50

smi	measured_endpoint	assay_result
C=CC(=O)NCCC(=O)Nc1ccc2ncnc(Nc3ccc(OCc4ccccn4)c(Cl)c3)c2c1	IC50	4 nM
C=CC(=O)NCCC(=O)Nc1cc2c(Nc3ccc(OCc4ccccn4)c(Cl)c3)ncnc2cc1OC	IC50	2 nM
C=CC(=O)N[C@@H](C)C(=O)Nc1cc2c(Nc3ccc(OCc4ccccn4)c(Cl)c3)ncnc2cc1OCCCN1CCOCC1	IC50	2 nM
C=CC(=O)NCC(=O)Nc1cc2c(Nc3ccc(OCc4cccc(F)c4)c(Cl)c3)ncnc2cc1OC	IC50	2 nM
C=CC(=O)N(C)CCC(=O)Nc1ccc2ncnc(Nc3ccc(OCc4cccc(F)c4)c(Cl)c3)c2c1	IC50	2 nM
C=CC(=O)N1CCC[C@H]1C(=O)Nc1ccc2ncnc(Nc3ccc(OCc4ccccn4)c(Cl)c3)c2c1	IC50	4 nM
